Tested on: PfAP2-G AP2 domain (GST-tagged)
protocol notes: gcPBM binding intensity (ln(normalized median fluorescence intensity)); higher = stronger DNA binding
In all, about 25,000 sequences were measured (“ln(normalized median fluorescence intensity)”: median about 10, highest 2% from about 12 on). The entries come from a sample that favours the highest values as a whole.
Task for the reader: assign each of the following sequences its reported gcPBM binding intensity (ln).
Would you mind answering with just the numeric figure?

Quick note, gcPBM binding intensity (ln) for TTTTTTTTTCCCGTAAATATTGAGACAACCATAATG [CACACA_negctrl_site41] landed at 10.6

Quick note, gcPBM binding intensity (ln) for GAGAAAAGGAAATTCACACATATAAAGAAAGATCTA [CACACA_site5420] landed at 9.87

Quick note, gcPBM binding intensity (ln) for TTTTACAAATGTTTTACACACACATAATTGTATCAA [CACACA_site4166] landed at 10.1

Quick note, gcPBM binding intensity (ln) for ATTAGAGAATCGTAACCCAAATGAACATACTTAAAT [GTGCAC_negctrl_site363] landed at 10

Quick note, gcPBM binding intensity (ln) for ATGTTTTATAAAAGGCGTACACATATGCTTAAGTAA [XGTACX_site6232] landed at 11.8

Quick note, gcPBM binding intensity (ln) for GAATTAAAATAATACGTACACACATGTATAATACAT [CACACA_site1004] landed at 11.7

Quick note, gcPBM binding intensity (ln) for ATTAAAATAATACGTACACACATGTATAATACATAT [CACACA_site1005] landed at 11.5

Quick note, gcPBM binding intensity (ln) for AAAAAAAAAAAAAAAAGTACAAATAAAAAAAAAATA [XGTACX_site4814] landed at 11.4

Quick note, gcPBM binding intensity (ln) for TTTTTTTTTTTAAAATGTACACGTAATTACATATAT [XGTACX_site752] landed at 11.4

====

Test system: PfAP2-G AP2 domain (GST-tagged)
protocol notes: gcPBM binding intensity (ln(normalized median fluorescence intensity)); higher = stronger DNA binding
The full ranking holds about 25,000 sequences; the median of “ln(normalized median fluorescence intensity)” is about 10, and the highest 2% start at about 12. This is one part of a sample in which the highest values are shown more often than they occur.
assay readout: gcPBM binding intensity (ln)

Quick note, gcPBM binding intensity (ln) for TTTTTTTAAAATATGAGTACATAATATTGTAAAAAT [XGTACX_site6536] landed at 11.4

Quick note, gcPBM binding intensity (ln) for TACACATGTTTAAAATGTACGTTTTATAACACACAC [XGTACX_site8229] landed at 11.3

Quick note, gcPBM binding intensity (ln) for GAAAAGTAGACAATATGTACATATAGTATTTATAAA [XGTACX_site878] landed at 11.1

Quick note, gcPBM binding intensity (ln) for GTAGGTGTTTTTGGTTGTACATATAAATATATATAC [XGTACX_site3380] landed at 11.3

Quick note, gcPBM binding intensity (ln) for ATTTCTAAATGTTGGTGTACGTTTTTTTATAACCTT [XGTACX_site1752] landed at 11.6

====

Test system: PfAP2-G AP2 domain (GST-tagged)
protocol notes: gcPBM binding intensity (ln(normalized median fluorescence intensity)); higher = stronger DNA binding
Whole data set: some 25,000 sequences, median “ln(normalized median fluorescence intensity)” near 10, cut for the highest 2% near 12. The sample holds the highest values, similar sequences and a random draw of the others, so the mix is not that of the screen.
Task for the reader: assign each of the following sequences its reported gcPBM binding intensity (ln).

Quick note, gcPBM binding intensity (ln) for TATATATATATATGTTGTACAAAAATGTAAAATATA [XGTACX_site7761] landed at 11.1

Quick note, gcPBM binding intensity (ln) for TATATTTATTTATTCTGTACTGAAGACAGTTATGTA [XGTACX_site8857] landed at 10.8

Quick note, gcPBM binding intensity (ln) for ATCAAATAATAGCAAACACACAAAAAATAAAAAAAA [CACACA_site4146] landed at 9.96

Quick note, gcPBM binding intensity (ln) for AATACATATGGGTGTACACATTATATATATATATAT [CACACA_site4601] landed at 11.6

Quick note, gcPBM binding intensity (ln) for TAATTTTCATAATTTTGTACTTAACGTTTTACCTTG [XGTACX_site8048] landed at 10.9

Quick note, gcPBM binding intensity (ln) for GCCTATATGTTTAGTTGTACTCCTAATATTATTTGT [XGTACX_site6060] landed at 11.7

Quick note, gcPBM binding intensity (ln) for CCACATATACAAAACACACACACAACGTTTTAATAA [CACACA_site1978] landed at 10.1

Quick note, gcPBM binding intensity (ln) for TCTTTTAAACAGTACACACACACATATATATATATA [CACACA_site924] landed at 11.2

Quick note, gcPBM binding intensity (ln) for TAAACAGATATATTTTGTACATATTGTATATTTTGT [XGTACX_site713] landed at 10.6

Quick note, gcPBM binding intensity (ln) for TATATCATCATGTATGTACACACATACATATATTAT [CACACA_site8387] landed at 11.2

Quick note, gcPBM binding intensity (ln) for ATAATAATATGTGGGTGTACATATACACATATATAT [XGTACX_site4356] landed at 11.3

Quick note, gcPBM binding intensity (ln) for TATATATACATATACACACACACACCGATATATATA [CACACA_site8706] landed at 10.1

Quick note, gcPBM binding intensity (ln) for TTATAATAATATAATACATGCATATATATTTAAATA [TGCATGCA_site903] landed at 9.62

Quick note, gcPBM binding intensity (ln) for TTTTCATTTGAAAGTCGTACAAGTTCGAAAAAAGGA [XGTACX_site6840] landed at 11.6

Quick note, gcPBM binding intensity (ln) for AAATTATTTCTTTGCGCATGTAGCTTTTATACTATT [TGCATGCA_site819] landed at 9.98

Quick note, gcPBM binding intensity (ln) for TATAATAATACGTATTGTACTATTAGGTTAATTCGT [XGTACX_site264] landed at 11.1

Quick note, gcPBM binding intensity (ln) for CACATATATACACATACACACACACCCATACACCCA [CACACA_site8505] landed at 10.5

Quick note, gcPBM binding intensity (ln) for AAAAAAATTAAATGGGGTACAATAAGGGTCAAATAT [XGTACX_site8669] landed at 11.6

Quick note, gcPBM binding intensity (ln) for ATATATATATATATTTGTACGTATTATGTATTTTTT [XGTACX_site3530] landed at 11.5

Quick note, gcPBM binding intensity (ln) for TTAAGATGCATAAATACATGCAAAGTAAATAATTCT [TGCATGCA_site517] landed at 9.88

Quick note, gcPBM binding intensity (ln) for ATGTAGGTTAATTATTGTACGTAGGGGGTGTATATT [XGTACX_site3973] landed at 11.8

Quick note, gcPBM binding intensity (ln) for TGGTGATATACGAAATGTACGCAAATCACAAAATAA [XGTACX_site8836] landed at 11.5

Quick note, gcPBM binding intensity (ln) for TAATATATTAATTTTTGTACTTAATTATATGTTTTT [XGTACX_site5654] landed at 10.9

Quick note, gcPBM binding intensity (ln) for TAGTAATATATATTTTGTACATAAAATAATATATAA [XGTACX_site7971] landed at 10.9

Quick note, gcPBM binding intensity (ln) for ATAATATATATATATATATTATCAAATATATATATA [GTGCAC_negctrl_site346] landed at 9.55

Quick note, gcPBM binding intensity (ln) for AAGTCAATTTTTTTTTTTTTTTTTTAACTTATTAAT [TGCATGCA_negctrl_site14] landed at 9.61

Quick note, gcPBM binding intensity (ln) for TATTATATATAATATTGTACATTAAAATATTAAAGA [XGTACX_site3698] landed at 10.9

Quick note, gcPBM binding intensity (ln) for TCATCATGTATGTACACACATACATATATTATGTAC [CACACA_site1386] landed at 11.7

Quick note, gcPBM binding intensity (ln) for ATGTATATATATATATGTACATATTTTTTATATGTA [XGTACX_site441] landed at 11.2

Quick note, gcPBM binding intensity (ln) for TAATAATATATTTGTAGTACACAATTTTTTATAACT [XGTACX_site3951] landed at 11.6

Quick note, gcPBM binding intensity (ln) for ACTATTTTAAAAATATGTACATACGTTGTAATTTAA [XGTACX_site7999] landed at 11.4

Quick note, gcPBM binding intensity (ln) for TTTTATTTATATTATACACACAAGGAAAAAAAAAAA [CACACA_site7690] landed at 10.2

Quick note, gcPBM binding intensity (ln) for TAACAATAACTTTATACACACATAATATAAATATAT [CACACA_site7635] landed at 9.87

Quick note, gcPBM binding intensity (ln) for ATGACATATAAATATACACACATACGTAAGTATATT [CACACA_site5058] landed at 9.96

Quick note, gcPBM binding intensity (ln) for TAGAAGCATTGACACACACACATACATACACATACA [CACACA_site6802] landed at 10.2

Quick note, gcPBM binding intensity (ln) for GTATATATATTTGTACGTACATATTGTTGTAAACAC [XGTACX_site8833] landed at 11.7

Quick note, gcPBM binding intensity (ln) for AAATTATTATATATATGTACGTATAATGTATTTTGT [XGTACX_site2903] landed at 11.5

Quick note, gcPBM binding intensity (ln) for ATATGCCTAATAAAATGTACGTTTGTTTTATTTATT [XGTACX_site3833] landed at 11
